Just for reference, ChEMBL document CHEMBL1201862 is where these values come from.

test system: KM12; experiment: NCI tumour cell line growth inhibition, 48 h
Activity calls are given as the source filed them. No stated cut-off is given here; in the data, active = GI50 up to about 1.1 µM and inactive = higher.
# output must be one of True for active, False for inactive

Answered examples (3):
INSERT INTO measurements (compound, assigned_category) VALUES
  ('O=S(=O)(O)c1cc(/N=N/c2cccc3ccccc23)c(O)c2ncccc12', 'False'),
  ('Oc1c(N2CCCCC2)cc(-c2cc(N3CCCCC3)c(O)c3ccccc23)c2ccccc12', 'False'),
  ('C/C=C1\CN2CCC34c5ccccc5N(C)C35OCC4(C(=O)OC)C1CC25 (centres undefined)', 'False');

State the result this test recorded for O=C(NNCC(O)COc1ccccc1)c1ccccc1 (centres undefined) . False

State the result this test recorded for Nc1ccc(I)cn1 . False

* * *

system: HT-29; experiment: NCI tumour cell line growth inhibition, 48 h
Active and inactive are the calls of the source. Cut-off read from the data, not from the text of the source: active = GI50 up to about 1.1 µM and inactive = higher.
# output must be one of true for active, false for inactive

State the result this test recorded for CSC1CC2C(CC1(C)SC)C2(C)C (configuration not stated) . false

State the result this test recorded for O=S(=O)(c1ccccc1)c1ccc(-c2nc(-c3ccc4c(c3)Sc3ccccc3S4)cs2)cc1 . false

State the result this test recorded for COc1cc(/C=C2/SC(c3ccccc3)N(Cc3ccccc3)C2=O)cc(OC)c1OC (configuration not stated) . false

State the result this test recorded for Cc1ccc(S(=O)(=O)OCC23CCC(C4CC42)C2CC23)cc1 (configuration not stated) . false

State the result this test recorded for COc1ccc(N2C(=O)C3c4[nH]c5ccccc5c4C4CCCCC4C3C2=O)cc1 (configuration not stated) . false

State the result this test recorded for N#CC1=C(N)C(C#N)(C#N)C(c2ccc(F)cc2)C=C1C1CC1 (configuration not stated) . false

State the result this test recorded for COc1cc2c(cc1OC)C1(c3ccccc3)CN(C2)Cc2cc(OC)c(OC)cc21 . false

State the result this test recorded for N=C(N)c1ccc(/N=N/c2c(O)ccc3cc(O)ccc23)cc1 . false

State the result this test recorded for O=S(=O)(/C=C/C=C/S(=O)(=O)c1ccccc1)c1ccccc1 . false

* * *

test system: HOP-62; test: NCI tumour cell line growth inhibition, 48 h
The source made the active and inactive calls. Cut-off read from the data, not from the text of the source: active = GI50 up to about 1.1 µM and inactive = higher.
Readout label: GI50

Example results:
INSERT INTO results (compound, measured_value) VALUES
  ('S=c1sc2c(Cl)ncnc2n1-c1ccccc1', '15.6 µM (inactive)'),
  ('O=C(/C=C/c1cccc(Oc2ccccc2)c1)NCc1ccc(C(=O)NCc2ccccc2)cc1', '2.96 µM (inactive)');

// query GI50 value for entry O=C1CCCC/C1=C\c1ccc(Br)cc1 20.7 µM (inactive)

// query GI50 value for entry COc1ccc2nc(C(=O)c3ccccc3)c(C)cc2c1 6.47 µM (inactive)

// query GI50 value for entry O=c1c(O)c(-c2ccccc2)oc2c(CP(=O)(O)O)cccc12 8.55 µM (inactive)

// query GI50 value for entry O=C(Nc1ccccc1)N(CCCCN(Cc1ccccc1)C(=O)Nc1ccccc1)Cc1ccccc1 > 100 µM (inactive)

// query GI50 value for entry CN(c1c(Cl)cccc1Cl)S(=O)(=O)c1ccccc1[N+](=O)[O-] > 100 µM (inactive)

* * *

test system: Hs-578T; assay: NCI tumour cell line growth inhibition, 48 h
Calls of active or inactive are those of the source. No stated cut-off is given here; in the data, active = GI50 up to about 1.1 µM and inactive = higher.
Readout label: GI50

INSERT INTO measurements (molecule, measured_value) VALUES
  ('COc1cc2c(c(OC)c1OC)-c1ccc(OC)c(=O)cc1C(NC(=O)CCCCCNc1ccc(N=[N+]=[N-])cc1[N+](=O)[O-])CC2 (stereo not given)', '< 0.01 µM (active)'),
  ('Cc1ccc2c(=O)c3cccc(CC(=O)O)c3[nH]c2c1C', '72.1 µM (inactive)'),
  ('COc1cc(CNC(=O)[C@H](Cc2ccc(O)cn2)NC(C)=O)cc(OC)c1', '> 100 µM (inactive)'),
  ('O=c1[nH]nc(Cc2ccccc2)n1/N=C/c1cccnc1', '> 100 µM (inactive)'),
  ('CN1CCCN2CCN(C)CCN(CC1)CC2', '> 100 µM (inactive)'),
  ('C[C@@H]1C[C@](O)([C@@H](C)Cl)C(=O)O[C@@H]2CCN3CC=C(COC(=O)[C@]1(C)O)[C@H]23', '> 100 µM (inactive)'),
  ('COC1(OC)N=C(N)C2(C#N)C(C)CC(=O)N(N(C)C)C12C#N (stereo not given)', '> 100 µM (inactive)'),
  ('CC(C)(C)OC(=O)NC(CSCc1ccc(C(=O)c2ccccc2)cc1)C(=O)N1CCN(CCCCN2c3ccccc3Sc3cc(N=[N+]=[N-])ccc32)CC1 (stereo not given)', '> 100 µM (inactive)'),
  ('O=C(CSc1nc2ccc(I)cc2c(=O)n1Cc1ccccc1)NNC(=O)c1ccccc1', '2.85 µM (inactive)');

// query GI50 value for entry Clc1ccc(-c2nc3cc(Cl)ccc3[nH]2)cc1 30.8 µM (inactive)

* * *

Overview of recorded GI50 for various molecules
test system: UO-31; test: NCI tumour cell line growth inhibition, 48 h
Activity calls are given as the source filed them. Rule as the data show it: active = GI50 up to about 1.1 µM and inactive = higher.

Example results:
INSERT INTO results (molecule, readout_label, measured_value) VALUES
  ('CC(=O)NC(CCCNC(=O)NCCCl)C(=O)NCc1ccccc1 (configuration not stated)', 'GI50', '> 100 µM (inactive)'),
  ('Oc1ccc2c3c1OC1c4[nH]ncc4C[C@H]4[C@@H](C2)N(CC2CC2)CC[C@]314 (some centres not stated)', 'GI50', '> 100 µM (inactive)'),
  ('O=C1c2ccccc2C(=O)c2c(Nc3ccc4c5c(cccc35)C(=O)c3ccccc3-4)cccc21', 'GI50', '> 100 µM (inactive)');

// query GI50 value for entry CCCCCCCCCCCCP(=O)(O)OCC(N)C(=O)O (configuration not stated) 12.3 µM (inactive)

// query GI50 value for entry COC(=O)/C=C\C(C#N)(C#N)/N=C/c1ccccc1 2.42 µM (inactive)

// query GI50 value for entry Cc1ccc(C(=O)N/N=C(\N=N\c2cccc(Cl)c2)c2ccc(N(CCC#N)CCC#N)cc2C)cc1 > 100 µM (inactive)

// query GI50 value for entry O=C1NCCCc2nonc21 > 100 µM (inactive)

// query GI50 value for entry O=c1c2ccc(Cl)cc2oc2c(CNc3ccc(S(=O)(=O)Nc4nccs4)cc3)cccc12 > 100 µM (inactive)

// query GI50 value for entry CCOC(=O)C(Cc1cn(S(=O)(=O)c2ccccc2)c2ccccc12)(NC(C)=O)C(=O)OCC 17.1 µM (inactive)

// query GI50 value for entry O=C1/C(=C\c2ccc(Cl)cc2Cl)Sc2scc(-c3ccc(O)c(O)c3)[n+]21 13 µM (inactive)

// query GI50 value for entry O=C1C=C(OCCCCl)C(=O)c2c(O)ccc(O)c21 1.18 µM (inactive)

// query GI50 value for entry COc1ccc(Nc2ccc3ccccc3c2-c2c(O)ccc3ccccc23)cc1 13.6 µM (inactive)

// query GI50 value for entry COc1ccc2nc3cc(Cl)ccc3c(Sc3ccccc3[N+](=O)[O-])c2c1 > 100 µM (inactive)

// query GI50 value for entry CCCC(=O)c1c(NOC2OCC(OC(C)=O)C(OC(C)=O)C2OC(C)=O)nc(OC)n(C)c1=O (configuration not stated) > 100 µM (inactive)

// query GI50 value for entry O=C1c2ccccc2CCC1C(O)(C(F)(F)F)C(F)(F)F (configuration not stated) > 100 µM (inactive)

* * *

system: HT-29; assay: NCI tumour cell line growth inhibition, 48 h
Activity calls are given as the source filed them. Rule as the data show it: active = GI50 up to about 1.1 µM and inactive = higher.
Overview of recorded GI50 for various molecules

Example results:
INSERT INTO assay_data (molecule, readout_label, measured_value) VALUES
  ('c1ccc(-c2nc(-c3ccccc3)c(-c3ccccc3)[nH]2)cc1', 'GI50', '> 94.6 µM (inactive)'),
  ('CCN(CC)CCOc1ccc(/C=C(\C#N)c2ccc(OCCN(CC)CC)cc2)cc1', 'GI50', '1.43 µM (inactive)'),
  ('N=C(N)Nc1ccc(CC(N)NCC(=O)O)cc1 (configuration not stated)', 'GI50', '> 25 µM (inactive)');

// query GI50 value for entry [N-]=[N+]=Nc1cc(=O)[nH]c2ccccc12 > 100 µM (inactive)

// query GI50 value for entry CC(C)C1NC(=O)[C@H](C)OC(=O)[C@@H](C(C)C)NC(=O)[C@@H](C)OC(=O)C(C(C)C)NC(=O)[C@H](C)OC1=O (some centres not stated) > 100 µM (inactive)

// query GI50 value for entry CCC(C)C(NC(=O)c1c2ccccc2nc2ccccc12)C(=O)O (configuration not stated) 75.9 µM (inactive)

// query GI50 value for entry O=S(=O)(SCc1ccccc1)C(c1ccccc1)c1ccccc1 28.6 µM (inactive)

// query GI50 value for entry Cc1cn(C2CC(N=[N+]=[N-])C(CO[Si](C)(C)C(C)(C)C)O2)c(=O)[nH]c1=O (configuration not stated) 16.8 µM (inactive)

// query GI50 value for entry O=C(Nc1ccn(C2CC(I)C(COC(c3ccccc3)(c3ccccc3)c3ccccc3)O2)c(=O)n1)c1ccccc1 (configuration not stated) 6.5 µM (inactive)

// query GI50 value for entry CC(C)(O)C1COC2=C1C(=O)c1ccccc1C2=O (configuration not stated) 44.4 µM (inactive)

// query GI50 value for entry O=C1c2ccccc2CC12Cc1ccc3c(c1C2=O)CCCC3 (configuration not stated) 6.49 µM (inactive)

// query GI50 value for entry CNC(=O)NC(CCCCNC(=O)OCc1ccccc1)C(=O)OCc1ccccc1 (configuration not stated) > 100 µM (inactive)

// query GI50 value for entry CCCCCCCC/C=C1\CCC(CN(C)C)C1=O (configuration not stated) 4.35 µM (inactive)

// query GI50 value for entry Nc1nc(O)nc2snnc12 > 100 µM (inactive)

// query GI50 value for entry O=[N+]([O-])C1=Cc2c(O)ccc(O)c2C2c3ccccc3NC12 (configuration not stated) 9.02 µM (inactive)

// query GI50 value for entry NC(C(F)(F)F)(C(F)(F)F)P(=O)(c1ccccc1)c1ccccc1 > 100 µM (inactive)

// query GI50 value for entry CCCn1c(SCCSc2c3ccccc3c(-c3nc(F)nc(F)n3)n2CCC)c2ccccc2c1-c1nc(F)nc(F)n1 > 100 µM (inactive)

// query GI50 value for entry CC(=O)Nc1ccc(/C=c2\sc3nnc(CCC(=O)Nc4ccccc4Cl)n3c2=O)cc1 54.2 µM (inactive)

// query GI50 value for entry COc1cc2ccnc3c(=C(SC)SC)c(=O)c(c1OC)c23 12.3 µM (inactive)

// query GI50 value for entry Nc1c(S(N)(=O)=O)cc(S(N)(=O)=O)cc1S(N)(=O)=O > 100 µM (inactive)

// query GI50 value for entry COc1ccc(-n2nnc3c(C#N)c(-c4ccccc4)c(C)n3c2=O)cc1 43.9 µM (inactive)

// query GI50 value for entry Cc1cccc(NC(=O)O/N=C(\Cl)C(C)C)c1 10.4 µM (inactive)
